tested on: MDA-MB-435 melanoma; test: NCI-60 one-dose screen, 48 h; settings: 10 µM
Compounds without any hit were thinned out: in the full panel of roughly 83,000, 20% have a hit. Calls of active or inactive are those of the source. The calls were made as follows: active = growth percent below 10; inactive = the rest.
Please state which outcome applies, choosing from active, inactive

Query: Check the results log: what was the call for CCn1c(SCC(=O)Nc2ccc(-c3nc4ccccc4[nH]3)cc2)nc2ccccc2c1=O ?
Response: active

* * *

test system: MDA-MB-468 breast; assay: NCI-60 one-dose screen, 48 h (100 = growth as untreated, 0 = no growth, -100 = all killed); details: 10 µM unless noted
The panel holds about 83,000 compounds, 20% with a hit somewhere; the sample as a whole holds those more often.
Threshold-based label: growth under 90% gives Yes, growth not under 90% gives No.

molecule | assigned.label
CCOc1cc(C(C)(C)C)ccc1C1=N[C@H](c2ccc(Cl)cc2)[C@H](c2ccc(Cl)cc2)N1C(=O)N1CCN(CC#Cc2cccc3c2CN([C@@H]2CCC(=O)NC2=O)C3=O)CC1 | Yes
COC(=O)/C(CCC=C(C)C)=C1\[C@@H](OC(C)=O)C[C@@]2(C)[C@H]1CC(=O)[C@H]1[C@@]3(C)CCC(N4CCCC4)[C@@H](C)[C@@H]3CC[C@@]12C (stereo not given in full) | No
O=C(N/N=C/c1ccccc1SSc1ccccc1/C=N/NC(=O)c1ccccc1)c1ccccc1 | Yes

In the following, a different molecule is considered.
Query: Below 90% on growth? Entry CN1CCN(Cc2ccc(NC(=O)c3cncc(C#Cc4cnc(N)c5cccnc45)c3)cc2C(F)(F)F)CC1
Response: Yes
